# system tested: Notum (Homo sapiens, UniProt Q6P988, C330S)
# Sequence (Q6P988 81-451 C330S): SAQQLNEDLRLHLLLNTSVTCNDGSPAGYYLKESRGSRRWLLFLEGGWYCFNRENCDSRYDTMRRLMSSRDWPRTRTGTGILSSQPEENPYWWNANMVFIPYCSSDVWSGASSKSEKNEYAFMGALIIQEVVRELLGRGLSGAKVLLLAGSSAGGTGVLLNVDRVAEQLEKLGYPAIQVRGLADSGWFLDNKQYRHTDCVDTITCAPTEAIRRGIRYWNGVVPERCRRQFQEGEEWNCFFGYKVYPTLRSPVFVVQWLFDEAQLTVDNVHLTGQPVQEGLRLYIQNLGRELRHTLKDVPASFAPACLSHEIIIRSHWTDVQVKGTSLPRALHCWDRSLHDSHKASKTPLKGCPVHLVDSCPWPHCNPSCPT
# measurement notes: biochemical
# experimental parameters: Notum IC50, OPTS substrate; 10-point curves 30 nM to 1 mM; mean ± s.d. of N = 2–4 unless stated; Table 1 and figures
pIC50: −log10 of the molar value.
property: pIC50

Reference set, count: 5
In: Identify the measured pIC50 of OCc1cn(-c2ccc(Cl)c(Cl)c2)nn1 [compound 7] for Notum (Homo sapiens, UniProt Q6P988, C330S).
Out: > 5.00

In: Identify the measured pIC50 of CCOc1ccc(CC(=O)O)cc1 [compound 48] for Notum (Homo sapiens, UniProt Q6P988, C330S).
Out: < 3.00

In: Identify the measured pIC50 of O=S1(=O)CCN(Cc2ccco2)CC1 [compound 30] for Notum (Homo sapiens, UniProt Q6P988, C330S).
Out: < 3.00

In: Identify the measured pIC50 of CCC(=O)Nc1ccc(C)cc1O [compound 42] for Notum (Homo sapiens, UniProt Q6P988, C330S).
Out: < 3.00

In: Identify the measured pIC50 of c1cc2c(cc1CNC[C@H]1CCCO1)OCO2 [compound 32] for Notum (Homo sapiens, UniProt Q6P988, C330S).
Out: ~3.00

---
In: Identify the measured pIC50 of CC(=O)Nc1ccc(OCC(=O)O)cc1 [compound 27, (4-Acetamidophenoxy)acetic acid] for Notum (Homo sapiens, UniProt Q6P988, C330S).
Out: < 3.00
